Assay: in vitro
Conditions: human, cryopreserved hepatocytes, with cimetidine 30 μM
Quantity: half-life at 1 μM (min)
Entry rule: numbers only, all in min.

In: What half-life at 1 μM value was documented for this molecule, COC(=O)Nc1nc2ccc(C(=O)c3ccccc3)cc2[nH]1 [Mebendazole] ?
Out: 55.9

----------
Experiment: Stability in human cryopreserved hepatocytes without and with cimetidine or furafylline (Example 5)
Type: in vitro ADME
Details: human, cryopreserved hepatocytes, with furafylline 3 μM, substrate 1 μM, furafylline 3 μM; read-out: t1/2
Quantity: half-life at 1 μM
Write the quantity with the unit trailing the number.

{"columns": ["Compound", "half-life at 1 μM"],
 "data": [
  ["CCOc1ccc(NC(C)=O)cc1 [Phenacetin]", "0.993 h"]
]}

In: What half-life at 1 μM value was documented for this compound, COC(=O)Nc1nc2ccc(C(=O)c3ccccc3)cc2[nH]1 [Mebendazole] ?
Out: 6.65 h

----------
Assay: in vitro
Details: human, cryopreserved hepatocytes (suspension), with mexiletine 300 μM
Quantity: half-life at 1 μM (h)
Entry rule: numbers only, all in h.

In: What half-life at 1 μM value was documented for this compound, COC(=O)Nc1nc2ccc(C(=O)c3ccccc3)cc2[nH]1 ?
Out: 11.1

----------
Assay: Stability in human cryopreserved hepatocytes without and with cimetidine or thiabendazole (Example 6)
Details: human, cryopreserved hepatocytes (suspension), with thiabendazole 10 µM, CLint, substrate 1 μM, thiabendazole 10 μM
Quantity: hepatocyte CLint at 1 µM
Write the quantity with the unit trailing the number.

In: What hepatocyte CLint at 1 µM value was documented for this molecule, CCOc1ccc2ccc(=O)oc2c1 ?
Out: 8.65 µL/min/1e6 cells

----------
Target: BCRP (Homo sapiens, UniProt Q9UNQ0)
Sequence (Q9UNQ0 whole entry): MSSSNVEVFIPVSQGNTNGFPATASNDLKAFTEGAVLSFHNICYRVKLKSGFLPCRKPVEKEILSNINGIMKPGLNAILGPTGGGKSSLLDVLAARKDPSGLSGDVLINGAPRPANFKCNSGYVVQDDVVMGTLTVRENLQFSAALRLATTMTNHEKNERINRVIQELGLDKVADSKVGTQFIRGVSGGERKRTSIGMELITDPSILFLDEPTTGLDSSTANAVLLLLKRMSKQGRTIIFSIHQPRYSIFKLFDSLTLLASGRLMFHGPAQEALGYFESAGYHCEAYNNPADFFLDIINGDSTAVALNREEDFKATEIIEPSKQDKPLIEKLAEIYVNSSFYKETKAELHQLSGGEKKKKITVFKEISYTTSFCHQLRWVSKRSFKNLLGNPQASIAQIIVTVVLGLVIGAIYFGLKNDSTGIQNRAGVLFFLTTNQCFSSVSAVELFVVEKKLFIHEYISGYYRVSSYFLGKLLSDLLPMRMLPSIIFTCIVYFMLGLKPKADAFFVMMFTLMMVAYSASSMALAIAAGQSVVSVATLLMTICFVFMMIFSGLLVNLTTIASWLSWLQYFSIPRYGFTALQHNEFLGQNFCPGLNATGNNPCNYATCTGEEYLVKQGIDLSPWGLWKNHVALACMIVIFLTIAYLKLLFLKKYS
Assay: in vitro
Settings: Caco-2
Quantity: efflux ratio at 120 min, 10 μM

In: What efflux ratio at 120 min, 10 μM value was documented for this compound, COC(=O)Nc1nc2ccc(C(=O)c3ccccc3)cc2[nH]1 [Mebendazole] ?
Out: 1.23

----------
Test: in vitro
Details: human, hepatocytes, t½
Quantity: half-life at 1 μM
Write the quantity with the unit trailing the number.

In: What half-life at 1 μM value was documented for this compound, COC(=O)Nc1nc2ccc(C(=O)c3ccccc3)cc2[nH]1 ?
Out: 1.54 h

----------
Test: Ricobendazole microsomal metabolic stability without and with cimetidine or furafylline (Example 8)
Assay type: in vitro ADME
Conditions: human, liver microsomes, pH 7.4, with cimetidine 100 μM; 0.1 μM, 1 mg/mL, cimetidine 100 μM; read-out: t½
Quantity: half-life at 0.1 μM (h)
Entry rule: numbers only, all in h.

In: What half-life at 0.1 μM value was documented for this compound, CCC[S+]([O-])c1ccc2[nH]c(NC(=O)OC)nc2c1 (stereo not shown) [Ricobendazole, albendazole sulphoxide] ?
Out: 3.37

----------
Test system: OVCAR-3
Test: 2D monolayer CellTiter-Blue viability, ovarian cancer OVCAR-3
Format: cell-based
Conditions: Homo sapiens, OVCAR-3, 72 h; read-out: Abs. IC50
Quantity: IC50 (nM)
Entry rule: numbers only, all in nM.

In: What IC50 value was documented for this compound, COC(=O)Nc1nc2ccc(C(=O)c3ccccc3)cc2[nH]1 ?
Out: 426

----------
Target: P-gp (Homo sapiens, UniProt P08183)
Sequence (P08183 whole entry): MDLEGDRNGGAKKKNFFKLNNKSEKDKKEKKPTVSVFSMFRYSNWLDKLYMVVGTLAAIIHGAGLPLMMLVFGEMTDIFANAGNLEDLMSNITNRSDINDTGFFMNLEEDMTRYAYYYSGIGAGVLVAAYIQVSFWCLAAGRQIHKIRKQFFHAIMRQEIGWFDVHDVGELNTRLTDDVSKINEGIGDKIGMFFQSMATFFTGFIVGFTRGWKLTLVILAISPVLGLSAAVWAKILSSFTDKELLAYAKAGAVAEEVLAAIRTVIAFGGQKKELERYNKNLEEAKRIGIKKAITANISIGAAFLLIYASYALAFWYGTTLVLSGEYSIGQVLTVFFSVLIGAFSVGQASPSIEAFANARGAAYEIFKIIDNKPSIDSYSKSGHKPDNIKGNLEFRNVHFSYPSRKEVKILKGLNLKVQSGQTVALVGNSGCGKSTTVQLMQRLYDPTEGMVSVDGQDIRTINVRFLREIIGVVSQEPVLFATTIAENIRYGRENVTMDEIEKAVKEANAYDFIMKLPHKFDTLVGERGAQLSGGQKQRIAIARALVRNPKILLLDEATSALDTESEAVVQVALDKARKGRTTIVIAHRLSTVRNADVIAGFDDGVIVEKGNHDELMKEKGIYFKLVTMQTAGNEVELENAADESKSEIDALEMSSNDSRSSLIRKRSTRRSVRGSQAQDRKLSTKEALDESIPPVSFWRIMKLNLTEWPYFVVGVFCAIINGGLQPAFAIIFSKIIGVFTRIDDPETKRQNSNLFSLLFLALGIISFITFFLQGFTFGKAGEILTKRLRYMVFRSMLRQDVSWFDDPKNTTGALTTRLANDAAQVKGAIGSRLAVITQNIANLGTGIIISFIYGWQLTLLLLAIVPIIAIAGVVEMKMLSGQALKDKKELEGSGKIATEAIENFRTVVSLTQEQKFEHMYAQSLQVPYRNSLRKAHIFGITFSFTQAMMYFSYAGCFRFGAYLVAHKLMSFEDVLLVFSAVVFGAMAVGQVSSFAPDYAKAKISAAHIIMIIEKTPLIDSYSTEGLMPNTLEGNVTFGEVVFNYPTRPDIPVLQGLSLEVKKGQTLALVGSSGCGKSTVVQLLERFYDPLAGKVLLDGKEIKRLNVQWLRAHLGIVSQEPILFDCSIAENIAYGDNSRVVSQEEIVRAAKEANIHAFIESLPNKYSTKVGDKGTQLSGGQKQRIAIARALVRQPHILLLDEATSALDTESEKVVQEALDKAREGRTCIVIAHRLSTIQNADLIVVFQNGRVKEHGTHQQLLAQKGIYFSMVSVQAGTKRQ
Experiment: in vitro
Conditions: human, Caco-2, Papp Rep 1
Quantity: Papp B→A at 120 min, 10 μM
Write the quantity with the unit trailing the number.

In: What Papp B→A at 120 min, 10 μM value was documented for this compound, COC(=O)Nc1nc2ccc(C(=O)c3ccccc3)cc2[nH]1 [Mebendazole] ?
Out: 30.2 ×10⁻⁶ cm/s

----------
Test system: RXF 486L
Test: 2D monolayer CellTiter-Blue viability, renal cancer RXF 486L (P-gp expressing, multidrug resistant)
Format: cell-based
Conditions: RXF 486L; RXF 486, 72 h; read-out: Abs. IC50
Quantity: pIC50
Scale explanation: pIC50 corresponds to minus log10 of a concentration expressed in moles per litre.

In: Form field - read-out: pIC50; system: RXF 486L; submitted item: COC(=O)Nc1nc2ccc(C(=O)c3ccccc3)cc2[nH]1
Out: 6.53

----------
Assay: in vitro
Conditions: human, cryopreserved hepatocytes (suspension)
Quantity: hepatocyte CLint at 1 µM (µL/min/1e6 cells)
Entry rule: numbers only, all in µL/min/1e6 cells.

In: What hepatocyte CLint at 1 µM value was documented for this compound, COC(=O)Nc1nc2ccc(C(=O)c3ccccc3)cc2[nH]1 [Mebendazole] ?
Out: 12.1

----------
Target: CYP2D6 (Homo sapiens, UniProt P10635)
Sequence (P10635 whole entry): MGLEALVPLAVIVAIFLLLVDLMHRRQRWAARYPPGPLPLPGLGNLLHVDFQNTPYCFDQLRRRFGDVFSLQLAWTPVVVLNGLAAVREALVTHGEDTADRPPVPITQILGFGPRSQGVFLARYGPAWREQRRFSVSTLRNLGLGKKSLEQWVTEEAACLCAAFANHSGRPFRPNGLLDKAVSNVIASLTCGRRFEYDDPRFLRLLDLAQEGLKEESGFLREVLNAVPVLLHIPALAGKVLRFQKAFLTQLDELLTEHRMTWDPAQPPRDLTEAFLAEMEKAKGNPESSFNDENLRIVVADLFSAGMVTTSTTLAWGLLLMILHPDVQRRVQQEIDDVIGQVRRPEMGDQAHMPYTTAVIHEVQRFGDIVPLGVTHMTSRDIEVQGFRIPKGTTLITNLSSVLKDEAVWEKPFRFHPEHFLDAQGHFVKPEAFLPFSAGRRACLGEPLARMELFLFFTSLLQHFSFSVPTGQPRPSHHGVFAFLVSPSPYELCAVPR
Assay: Cytochrome P450 reaction phenotyping, recombinant CYP2D6 (Bactosomes)
Conditions: human, recombinant CYP2D6 (Bactosomes), pH 7.4
Quantity: half-life at 5 μM

In: Form field - read-out: half-life at 5 μM; system: CYP2D6 (Homo sapiens, UniProt P10635); submitted item: COC(=O)Nc1nc2ccc(C(=O)c3ccccc3)cc2[nH]1
Out: > 2.25 h

----------
Biological target: P-gp (Homo sapiens, UniProt P08183)
Assay: in vitro
Conditions: human, Caco-2, Papp Rep 2
Quantity: Papp A→B at 120 min, 10 μM

In: What Papp A→B at 120 min, 10 μM value was documented for this compound, COC(=O)Nc1nc2ccc(C(=O)c3ccccc3)cc2[nH]1 [Mebendazole] ?
Out: 28.5 ×10⁻⁶ cm/s

----------
Assay: Ricobendazole microsomal metabolic stability without and with cimetidine or furafylline (Example 8)
Assay type: in vitro ADME
Settings: human, liver microsomes, pH 7.4, with cimetidine 100 μM; 0.1 μM, 1 mg/mL, cimetidine 100 μM; read-out: CLint
Quantity: microsomal CLint at 0.1 μM
Write the quantity with the unit trailing the number.

In: What microsomal CLint at 0.1 μM value was documented for this compound, CCC[S+]([O-])c1ccc2[nH]c(NC(=O)OC)nc2c1 (stereo not shown) [Ricobendazole, albendazole sulphoxide] ?
Out: 3.43 µL/min/mg

----------
System: 6 ovarian cancer (OVXF) and 6 renal cancer (RXF) cell lines
Experiment: 2D monolayer CellTiter-Blue viability, panel geometric mean (Example 10)
Format: cell-based
Settings: 12 cell lines, 72 h; read-out: Geometric mean Rel. IC50
Protocol: Mebendazole was tested in vitro across a panel of 12 tumor cell lines of ovarian and renal cancer by using a 2D monolayer assay. […] OVXF 899L and RXF 486L are P-gp expressing, multidrug resistant cell lines. Anti-tumor activity is expressed as absolute and relative IC50/70 values, calculated by 4-parameter non-linear curve fit.
Quantity: IC50

In: Form field - read-out: IC50; system: 6 ovarian cancer (OVXF) and 6 renal cancer (RXF) cell lines; submitted item: COC(=O)Nc1nc2ccc(C(=O)c3ccccc3)cc2[nH]1
Out: 587 nM

----------
Biological target: CYP2C9 (Homo sapiens)
Sequence (P11712 whole entry): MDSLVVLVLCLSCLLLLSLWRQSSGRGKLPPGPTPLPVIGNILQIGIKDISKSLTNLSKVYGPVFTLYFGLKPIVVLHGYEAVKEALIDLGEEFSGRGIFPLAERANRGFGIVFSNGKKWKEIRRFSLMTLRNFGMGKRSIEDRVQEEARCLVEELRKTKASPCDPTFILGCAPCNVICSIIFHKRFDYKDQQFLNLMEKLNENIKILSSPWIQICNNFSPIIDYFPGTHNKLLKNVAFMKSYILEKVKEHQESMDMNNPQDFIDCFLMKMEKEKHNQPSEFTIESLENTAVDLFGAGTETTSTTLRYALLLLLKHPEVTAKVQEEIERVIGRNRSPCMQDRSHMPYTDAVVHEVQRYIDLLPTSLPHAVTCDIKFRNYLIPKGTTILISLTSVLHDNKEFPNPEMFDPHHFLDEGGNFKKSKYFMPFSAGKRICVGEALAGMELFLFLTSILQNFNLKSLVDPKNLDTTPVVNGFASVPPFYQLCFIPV
Experiment: Cytochrome P450 reaction phenotyping, recombinant CYP2C9 (Bactosomes)
Details: human, recombinant CYP2C9 (Bactosomes), pH 7.4
Procedure: Incubations were also performed using control Bactosomes™ (no P450 enzymes present) to reveal any non-enzymatic degradation. Control compounds known to be metabolised specifically by each P450 isoform were included. All incubations were performed singularly for each test compound. Incubations were also performed using control Bactosomes™ (no P450 enzymes present) to reveal any non-enzymatic degradation. Control compounds known to be metabolised specifically by each P450 isoform were included. […]
Quantity: half-life at 5 μM

In: What half-life at 5 μM value was documented for this compound, COC(=O)Nc1nc2ccc(C(=O)c3ccccc3)cc2[nH]1 ?
Out: > 2.25 h

----------
Assay: Stability in human cryopreserved hepatocytes without and with cimetidine or furafylline (Example 5)
Type: in vitro ADME
Conditions: human, cryopreserved hepatocytes, substrate 1 μM, hepatocyte stability investigation (no inhibitor arm); read-out: intrinsic clearance
Quantity: hepatocyte CLint at 1 µM (µL/min/1e6 cells)
Entry rule: numbers only, all in µL/min/1e6 cells.

In: What hepatocyte CLint at 1 µM value was documented for this compound, COC(=O)Nc1nc2ccc(C(=O)c3ccccc3)cc2[nH]1 ?
Out: 19.1

----------
Test system: OVCAR-5
Test: 2D monolayer CellTiter-Blue viability, ovarian cancer OVCAR-5
Type: cell-based
Details: Homo sapiens, OVCAR-5, 72 h; read-out: Rel. IC50
Quantity: pIC50
Scale explanation: pIC50 corresponds to minus log10 of a concentration expressed in moles per litre.

In: What pIC50 value was documented for this compound, COC(=O)Nc1nc2ccc(C(=O)c3ccccc3)cc2[nH]1 [Mebendazole] ?
Out: 6.14

----------
Assay: Ricobendazole microsomal metabolic stability without and with cimetidine or furafylline (Example 8)
Type: in vitro ADME
Settings: human, liver microsomes, pH 7.4, with furafylline 30 μM; read-out: t½
Quantity: half-life at 0.1 μM

In: What half-life at 0.1 μM value was documented for this compound, CCC[S+]([O-])c1ccc2[nH]c(NC(=O)OC)nc2c1 (stereo not shown) [Ricobendazole, albendazole sulphoxide] ?
Out: 3.95 h

----------
Experiment: Ricobendazole microsomal metabolic stability without and with cimetidine or furafylline (Example 8)
Assay type: in vitro ADME
Conditions: human, liver microsomes, pH 7.4, with cimetidine 30 μM; 0.1 μM, 1 mg/mL, cimetidine 30 μM; read-out: t½
Quantity: half-life at 0.1 μM (h)
Entry rule: numbers only, all in h.

In: What half-life at 0.1 μM value was documented for this compound, CCC[S+]([O-])c1ccc2[nH]c(NC(=O)OC)nc2c1 (stereo not shown) [Ricobendazole, albendazole sulphoxide] ?
Out: 3.67
